From: patent US9096615B2

- Tested on: Aβ40 in conditioned medium of cells stably expressing Amyloid Precursor Protein (APP)
- protocol.text: In vitro BACE cell-based assay (HEK cell assay, Aβ40 sandwich ELISA)
- condition.notes: Homo sapiens, HEK293; average IC50; read-out: BACE1 cell assay IC50
recorded.metric: pIC50
Convention used: pIC50 is expressed as -log10 of the molar concentration.

INSERT INTO assay_data (chemical_structure, value_reported) VALUES
  ('CC#C[C@H](C)Oc1cnc(C(=O)Nc2ccc(F)c([C@@]3(C)N=C(N)[C@@]4(C)CC[C@@H]3S4(=O)=O)c2)cn1', 10.00);

Reported pIC50 ( Cc1nc(OCC(F)(F)F)cnc1C(=O)Nc1ccc(F)c([C@@]2(C)N=C(N)[C@@]3(CF)CC[C@@H]2S3(=O)=O)c1 ) = 7.32

Reported pIC50 ( C[C@]12CC[C@H]([C@@](C)(c3cc(Nc4ncc(F)c5cc(OCC6CC6)cnc45)ccc3F)N=C1N)S2(=O)=O ) = 6.60

Reported pIC50 ( COc1cnc2c(Nc3ccc(F)c([C@@]4(C)N=C(N)[C@@]5(CF)CC[C@@H]4S5(=O)=O)c3)ncnc2c1 ) = 8.15

Reported pIC50 ( C[C@]1(c2cc(Nc3ncnc4cc(Cl)cnc34)ccc2F)N=C(N)[C@@]2(CF)CC[C@@H]1S2(=O)=O ) = 7.82

Reported pIC50 ( C[C@]12CC[C@H]([C@@](C)(c3cc(Nc4nccc5cc(C#N)cnc45)ccc3F)N=C1N)S2(=O)=O ) = 7.96

* * *

- system: BACE1 (Homo sapiens, UniProt P56817)
- Sequence (P56817 46-501, species assumed): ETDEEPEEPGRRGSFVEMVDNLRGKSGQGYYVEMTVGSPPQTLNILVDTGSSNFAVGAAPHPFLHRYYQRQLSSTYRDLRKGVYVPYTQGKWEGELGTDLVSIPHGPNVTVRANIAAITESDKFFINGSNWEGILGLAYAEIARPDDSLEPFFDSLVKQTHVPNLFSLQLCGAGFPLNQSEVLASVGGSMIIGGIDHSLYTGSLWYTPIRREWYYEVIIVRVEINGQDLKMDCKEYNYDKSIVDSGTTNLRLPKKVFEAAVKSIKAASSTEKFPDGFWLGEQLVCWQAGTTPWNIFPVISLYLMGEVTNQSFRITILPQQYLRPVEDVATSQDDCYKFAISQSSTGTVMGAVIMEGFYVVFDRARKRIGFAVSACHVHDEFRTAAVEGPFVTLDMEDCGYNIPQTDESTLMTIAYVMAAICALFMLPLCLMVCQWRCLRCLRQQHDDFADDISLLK
- protocol.text: In vitro enzymatic BACE FRET assay
- Format: biochemical
- condition.notes: average IC50; read-out: BACE1 Enzyme assay IC50
Returns: string. Value is satisfied if measured IC50 is below 30 nM, and not satisfied if it is greater than or equal to it.

INSERT INTO measurements (chemical_structure, cat) VALUES
  ('C[C@]12CC[C@H]([C@@](C)(c3cc(Nc4nccc5nc(C(F)(F)F)cnc45)ccc3F)N=C1N)S2(=O)=O', 'not satisfied'),
  ('C[C@]12CC[C@H]([C@@](C)(c3cc(Nc4ncnc5cc(Cl)cnc45)ccc3F)N=C1N)S2(=O)=O', 'satisfied');

(Q) Is IC50 of C[C@]1(c2cc(Nc3ncc(F)c4cc(O)cnc34)ccc2F)N=C(N)[C@@]2(C)CC[C@@H]1S2(=O)=O strictly below 30 nM?
(A) satisfied

(Q) Is IC50 of Cc1cc(Cl)cnc1C(=O)Nc1ccc(F)c([C@@]2(CF)N=C(N)[C@]3(C)CC[C@H]2S3(=O)=O)c1 strictly below 30 nM?
(A) satisfied

(Q) Is IC50 of COc1cnc2c(Nc3ccc(F)c([C@@]4(C)N=C(N)[C@]5(C)CC[C@H]4S5(=O)=O)c3)ncnc2c1 strictly below 30 nM?
(A) not satisfied

(Q) Is IC50 of C[C@]1(c2cc(Nc3nccc4nc(C(F)(F)F)cnc34)ccc2F)N=C(N)[C@@]2(CF)CC[C@@H]1S2(=O)=O strictly below 30 nM?
(A) satisfied

(Q) Is IC50 of COc1cnc2c(Nc3ccc(F)c([C@@]4(C)N=C(N)[C@]5(C)CC[C@H]4S5(=O)=O)c3)nccc2n1 strictly below 30 nM?
(A) not satisfied
